FYI, the data here is from patent US9328138B2.

Target: UniProt:Q81258
Experiment: HCV NS3 protease time-resolved fluorescence (TRF) assay, genotype 3a
Type: biochemical
Conditions: Ki 3a
Excerpt: The HCV NS3 protease inhibitory activity of the present compounds may be tested using assays known in the art. One such assay is HCV NS3 protease time-resolved fluorescence (TRF) assay as described below and in International Patent Application Publication No. WO2006/102087. […] Product fluorescence is detected using either a VICTOR V2 or FUSION fluorophotometer (Perkin Elmer Life and Analytical Sciences) with excitation at 340 nm and emission at 615 nm with a 400 μs delay. […]
The entries below come with measured Ki values attached.

# compound_string, Ki
data = [
    ("C=C[C@@H]1C[C@]1(NC(=O)[C@@H]1C[C@@H]2CN1C(=O)[C@H](C(C)(C)C)NC(=O)O[C@@H]1C[C@H]1CCCCCc1c(nc3ccccc3c1OCCN1CCOC(C)(C)C1)O2)C(=O)NS(=O)(=O)C1(C)CC1", "9.5 nM"),
    ("C=C[C@@H]1C[C@]1(NC(=O)[C@@H]1C[C@@H]2CN1C(=O)[C@H](C1CCCCC1)NC(=O)O[C@@H]1C[C@H]1CCCCCc1c(nc3ccccc3c1O[C@@H]1CCN(C(=O)OC(C)(C)C)C[C@@H]1F)O2)C(=O)NS(=O)(=O)C1(C)CC1", "49.4 nM"),
    ("C=C[C@@H]1C[C@]1(NC(=O)[C@@H]1C[C@@H]2CN1C(=O)[C@H](C(C)(C)C)NC(=O)O[C@@H]1C[C@H]1CCCCCc1c(nc3ccccc3c1OCCCN(C)Cc1ncc(C)[nH]1)O2)C(=O)NS(=O)(=O)C1(C)CC1", "1.3 nM"),
    ("C=C[C@@H]1C[C@]1(NC(=O)[C@@H]1C[C@@H]2CN1C(=O)[C@H](C(C)(C)C)NC(=O)O[C@@H]1C[C@H]1CCCCCc1c(nc3cc(F)ccc3c1OCCCN1CCOCC1)O2)C(=O)NS(=O)(=O)C1(C)CC1", "1.5 nM"),
]
